- Tested on: HL-60
- Assay Comment: In vitro inhibition of human leukemic HL-60 cell growth in culture
- Assay type: functional, cell-based
pIC50: −log10 of the molar value.
Binary classification by pIC50, with 7 as an inclusive lower bound for YES; all other cases are NO.

[
  {
    "Structure Notation": "CC(C)COC(=O)Nc1cc(CO)cc(Nc2c3ccccc3nc3ccccc23)c1",
    "System Tested": "HL-60",
    "Class Label": "YES"
  },
  {
    "Structure Notation": "CCOC(=O)Nc1cc(CO)cc(Nc2c3ccccc3nc3ccccc23)c1",
    "System Tested": "HL-60",
    "Class Label": "YES"
  },
  {
    "Structure Notation": "Nc1cc(CO)cc(Nc2c3ccccc3nc3c([N+](=O)[O-])cccc23)c1",
    "System Tested": "HL-60",
    "Class Label": "NO"
  },
  {
    "Structure Notation": "Cc1cccc2c(Nc3cc(N)cc(CO)c3)c3ccccc3nc12",
    "System Tested": "HL-60",
    "Class Label": "YES"
  },
  {
    "Structure Notation": "CC(C)(C)OC(=O)Nc1cc(CO)cc(Nc2c3ccccc3nc3ccccc23)c1",
    "System Tested": "HL-60",
    "Class Label": "YES"
  }
]

Then this compound:
Exercise: // inclusive: pIC50 at least 7? input: `CCOC(=O)Nc1cc(CO)cc(Nc2c3ccccc3nc3c(C(=O)NCCN(C)C)cccc23)c1`
Key: YES

* * *

- System: HL-60
- Assay Comment: In vitro inhibition of human leukemic HL-60 cell growth in culture
- Type: functional, cell-based
Observable: IC50
Please answer using the number first and the unit second.

[
  {
    "Structure Notation": "CCOC(=O)Nc1cc(CO)cc(Nc2c3ccccc3nc3c(Cl)cccc23)c1",
    "Observable": "IC50",
    "Endpoint Value": "67 nM"
  },
  {
    "Structure Notation": "CCOC(=O)Nc1cc(CO)cc(Nc2c3ccccc3nc3c(C)cccc23)c1",
    "Observable": "IC50",
    "Endpoint Value": "4.7 nM"
  }
]

For each entry beneath this line, provide reported IC50.
1. CNC(=O)c1cccc2c(Nc3cc(N)cc(CO)c3)c3cccc(C)c3nc12
2. COc1cccc2c(Nc3cc(N)cc(CO)c3)c3cccc(C(=O)NCCN(C)C)c3nc12
3. O=C(Nc1cc(CO)cc(Nc2c3ccccc3nc3ccccc23)c1)Oc1ccccc1
4. CCOC(=O)Nc1cc(CO)cc(Nc2c3cccc(OC)c3nc3c(C(=O)NC)cccc23)c1
5. CCOC(=O)Nc1cc(CO)cc(Nc2c3ccccc3nc3c(C(=O)NC)cccc23)c1
6. CCCOC(=O)Nc1cc(CO)cc(Nc2c3ccccc3nc3ccccc23)c1
7. Nc1cc(CO)cc(Nc2c3ccccc3nc3ccccc23)c1

Key:
1. 93 nM
2. 38 nM
3. 161 nM
4. 32 nM
5. 88 nM
6. 8 nM
7. 27 nM

Hi team, please reply with IC50 for each item in this list.
1. COC(=O)Nc1cc(CO)cc(Nc2c3ccccc3nc3ccccc23)c1
2. CCOC(=O)Nc1cc(CO)cc(Nc2c3cccc(OC)c3nc3c(C(=O)NCCN(C)C)cccc23)c1
3. O=C(Nc1cc(CO)cc(Nc2c3ccccc3nc3ccccc23)c1)OCc1ccccc1
4. Nc1cc(CO)cc(Nc2c3ccccc3nc3c(Cl)cccc23)c1
5. CNC(=O)c1cccc2c(Nc3cc(N)cc(CO)c3)c3ccccc3nc12
6. COc1cccc2c(Nc3cc(N)cc(CO)c3)c3ccccc3nc12
7. Nc1cc(CO)cc(Nc2c3ccccc3nc3c(Br)cccc23)c1
8. CCOC(=O)Nc1cc(CO)cc(Nc2c3cccc(C)c3nc3c(C(=O)NC)cccc23)c1

Key:
1: 8.5 nM; 2: 9.7 nM; 3: 29 nM; 4: 370 nM; 5: 290 nM; 6: 11 nM; 7: 1500 nM; 8: 11 nM

* * *

- Test system: HL-60
- Assay Comment: In vitro inhibition of human leukemic HL-60 cell growth in culture
- Assay type: functional, cell-based
Observable: IC50 (nM)
Give bare numbers, in nM.

Please review the entries below; each comes with its answer.
[
  {
    "Structure Notation": "CN(C)CCNC(=O)c1cccc2c(Nc3cc(N)cc(CO)c3)c3ccccc3nc12",
    "Observable": "IC50",
    "Endpoint Value": 130
  },
  {
    "Structure Notation": "CCOC(=O)Nc1cc(CO)cc(Nc2c3ccccc3nc3c(Br)cccc23)c1",
    "Observable": "IC50",
    "Endpoint Value": 130
  },
  {
    "Structure Notation": "CNC(=O)c1cccc2c(Nc3cc(N)cc(CO)c3)c3cccc(OC)c3nc12",
    "Observable": "IC50",
    "Endpoint Value": 120
  }
]

Attention now shifts to the item below.
Exercise: Kindly indicate its recorded IC50. Item: `Nc1cc(CO)cc(Nc2c3ccccc3nc3c(F)cccc23)c1`
Key: 150

* * *

- Test system: HL-60
- Assay Comment: In vitro inhibition of human leukemic HL-60 cell growth in culture
- Type: functional, cell-based
Observable: IC50

[
  {
    "Structure Notation": "CCOC(=O)Nc1cc(CO)cc(Nc2c3ccccc3nc3c(OC)cccc23)c1",
    "Endpoint Value": "10 nM"
  },
  {
    "Structure Notation": "Cc1cccc2c(Nc3cc(N)cc(CO)c3)c3cccc(C(=O)NCCN(C)C)c3nc12",
    "Endpoint Value": "7.4 nM"
  },
  {
    "Structure Notation": "CCOC(=O)Nc1cc(CO)cc(Nc2c3ccccc3nc3c(F)cccc23)c1",
    "Endpoint Value": "31 nM"
  }
]

# next molecule below
Exercise: Write down IC50 measured for item `CCOC(=O)Nc1cc(CO)cc(Nc2c3ccccc3nc3c([N+](=O)[O-])cccc23)c1`
Key: 3800 nM

Ref: ChEMBL document CHEMBL1132156
